Taken from ChEMBL document CHEMBL2311293.

assay: Clearance in Sprague-Dawley rat at 1 umol/kg, iv; format: ADME, organism-based; conditions: in vivo
Measurement Type: clearance (mL/min/kg)
Quick note: give the figure in mL/min/kg, leave out the unit.

Prompt line: Recorded clearance of COc1ccc(NC(=O)c2ccc(Cn3ccnn3)c3ccccc23)c(C(=O)NCC2CCOCC2)n1 , please.
Response line: 22

* * *

target: Cytochrome P450 2C9 (Homo sapiens, UniProt P11712); assay: Inhibition of human recombinant CYP2C9 expressed in Escherichia coli cells
Sequence (P11712 whole entry): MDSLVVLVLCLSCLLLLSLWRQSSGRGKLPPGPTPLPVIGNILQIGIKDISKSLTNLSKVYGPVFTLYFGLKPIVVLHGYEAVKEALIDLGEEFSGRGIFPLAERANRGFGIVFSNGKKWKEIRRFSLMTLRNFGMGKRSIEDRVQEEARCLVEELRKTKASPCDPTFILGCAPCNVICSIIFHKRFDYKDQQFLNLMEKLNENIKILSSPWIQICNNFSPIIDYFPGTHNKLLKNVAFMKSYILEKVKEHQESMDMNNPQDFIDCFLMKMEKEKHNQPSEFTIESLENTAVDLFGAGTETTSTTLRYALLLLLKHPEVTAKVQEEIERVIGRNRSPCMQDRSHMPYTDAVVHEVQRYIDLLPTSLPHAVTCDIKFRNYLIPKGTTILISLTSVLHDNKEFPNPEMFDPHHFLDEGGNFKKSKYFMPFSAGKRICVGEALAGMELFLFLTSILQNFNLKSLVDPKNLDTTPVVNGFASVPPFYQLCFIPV
Measurement Type: pIC50
A value of pIC50 is the negative decimal logarithm of a concentration given in moles per litre.

Prompt line: Recorded pIC50 of O=C(NCC1CCOCC1)c1ncccc1NC(=O)c1ccc(Cn2ccnn2)c2ccccc12 , please.
Response line: 6.18

Prompt line: Recorded pIC50 of COc1ccc(NC(=O)c2ccc(Cn3ccnn3)c3ccccc23)c(C(=O)NCC2CCOCC2)n1 , please.
Response line: 6.96

Prompt line: Recorded pIC50 of C[S+]([O-])Cc1ccc(C(=O)Nc2cccnc2C(=O)NCC2CCOCC2)c2ccccc12 (stereo unspecified) , please.
Response line: 4.72

Prompt line: Recorded pIC50 of COc1ccc(NC(=O)c2ccc(C[S+](C)[O-])c3ccccc23)c(C(=O)NCC2CCOCC2)n1 (stereo unspecified) , please.
Response line: 5.80

Prompt line: Recorded pIC50 of C[S+]([O-])Cc1ccc(C(=O)Nc2ccc(OCCOCCO)nc2C(=O)NCC2CCC2)c2ccccc12 (stereo unspecified) , please.
Response line: 5.17

* * *

Kindly state solubility at 24 h for each of the entries shown.
test: Solubility of the compound in Hank's balanced saline solution at pH 7.4 after 24 hrs by HPLC analysis; assay type: physicochemical
Please state the value followed by its unit.

Prompt line: Recorded solubility at 24 h of COc1ccc(NC(=O)c2ccc(Cn3ccnn3)c3ccccc23)c(C(=O)NCC2CCOCC2)n1 , please.
Response line: 3.7 µM

Prompt line: Recorded solubility at 24 h of C[S+]([O-])Cc1ccc(C(=O)Nc2cccnc2C(=O)NCC2CCOCC2)c2ccccc12 (centres undefined) , please.
Response line: 79 µM

Prompt line: Recorded solubility at 24 h of C[S+]([O-])Cc1ccc(C(=O)Nc2nccnc2C(=O)NCC2CCC2)c2ccccc12 (stereo in doubt; 18f) , please.
Response line: 87 µM

Prompt line: Recorded solubility at 24 h of COc1ccc(NC(=O)c2ccc(C[S+](C)[O-])c3ccccc23)c(C(=O)NCC2CCOCC2)n1 (centres undefined) , please.
Response line: 93 µM

* * *

biological target: UniProt:P21554; assay: Agonist activity at human CB1 receptor expressed in HEK293S cell membranes after 1 hr by GTPgamma[35S] binding assay
Measurement Type: log10 EC50 (log10 of the value in nM)
Field: value | Transform: log10 | Quantity: EC50 | Unit: nM

Prompt line: Recorded log10 EC50 of O=C(NCC1CCC1)c1ncccc1NC(=O)c1ccc(Cn2ccnn2)c2ccccc12 , please.
Response line: 0.15

Prompt line: Recorded log10 EC50 of O=C(NCC1CCC1)c1nccnc1NC(=O)c1ccc(Cn2ccnn2)c2ccccc12 , please.
Response line: 0.91

Prompt line: Recorded log10 EC50 of C[S+]([O-])Cc1ccc(C(=O)Nc2ccc(OCCOCCO)nc2C(=O)NCC2CCC2)c2ccccc12 (stereo not given) , please.
Response line: 0.71

Prompt line: Recorded log10 EC50 of O=C(NCC1CCC1)c1ncccc1NC(=O)c1ccnc2ccccc12 , please.
Response line: 1.90

Prompt line: Recorded log10 EC50 of COc1ccc(NC(=O)c2ccnc3ccccc23)c(C(=O)NCC2CCC2)n1 , please.
Response line: 1.20

Prompt line: Recorded log10 EC50 of O=C(NCC1CCCCC1)c1nccnc1NC(=O)c1cccc2ccccc12 , please.
Response line: 2.68

Prompt line: Recorded log10 EC50 of O=C(NCC1CCC1)c1ncccc1NC(=O)c1cccc2ccccc12 , please.
Response line: 1.36

Prompt line: Recorded log10 EC50 of CN(C)Cc1ccc(C(=O)Nc2cccnc2C(=O)NCC2CCC2)c2ccccc12 , please.
Response line: 2.26

Prompt line: Recorded log10 EC50 of CS(=O)(=O)Cc1ccc(C(=O)Nc2cccnc2C(=O)NCC2CCC2)c2ccccc12 , please.
Response line: 2.41

Prompt line: Recorded log10 EC50 of O=C(NCC1CCCCC1)c1ncccc1NC(=O)c1cccc2ccccc12 , please.
Response line: 1.38

Prompt line: Recorded log10 EC50 of COc1ccc(NC(=O)c2ccc(Cn3ccnn3)c3ccccc23)c(C(=O)NCC2CCOCC2)n1 , please.
Response line: 0.46

Prompt line: Recorded log10 EC50 of C[S@@+]([O-])Cc1ccc(C(=O)Nc2cccnc2C(=O)NCC2CCOCC2)c2ccccc12 , please.
Response line: 1.49

Prompt line: Recorded log10 EC50 of C[S+]([O-])Cc1ccc(C(=O)Nc2nccnc2C(=O)NCC2CCC2)c2ccccc12 (stereo in doubt; 18f) , please.
Response line: 2.08

Prompt line: Recorded log10 EC50 of O=C(NCC1CCOCC1)c1ncccc1NC(=O)c1ccc(Cn2ccnn2)c2ccccc12 , please.
Response line: 0.90

Prompt line: Recorded log10 EC50 of COCc1ccc(C(=O)Nc2cccnc2C(=O)NCC2CCC2)c2ccccc12 , please.
Response line: 0.77

Prompt line: Recorded log10 EC50 of COc1ccc(NC(=O)c2ccc(C[S+](C)[O-])c3ccccc23)c(C(=O)NCC2CCOCC2)n1 (stereo not given) , please.
Response line: 1.11

Prompt line: Recorded log10 EC50 of O=C(NCC1CCCCC1)c1cc(Cl)ccc1NC(=O)c1cccc2ccccc12 , please.
Response line: 2.41

Prompt line: Recorded log10 EC50 of O=C(NCC1CCC1)c1nc(OCCO)ccc1NC(=O)c1ccnc2ccccc12 , please.
Response line: 2.08

Prompt line: Recorded log10 EC50 of O=C(NCC1CCC1)c1nc(OCCOCCO)ccc1NC(=O)c1ccnc2ccccc12 , please.
Response line: 1.15

Prompt line: Recorded log10 EC50 of O=C(NCC1CCOCC1)c1nc(OS(=O)(=O)CCC(F)(F)F)ccc1NC(=O)c1ccc(Cn2ccnn2)c2ccccc12 , please.
Response line: 1.04

* * *

Kindly state Papp A→B for each of the entries shown.
experiment: Apparent permeability from apical to basolateral side in human Caco2 cells at pH 7.4; assay type: ADME, cell-based; conditions: Caco-2, pH 7.4
Quick note: give the figure in ×10⁻⁶ cm/s, leave out the unit.

Prompt line: Recorded Papp A→B of O=C(NCC1CCC1)c1nccnc1NC(=O)c1ccc(Cn2ccnn2)c2ccccc12 , please.
Response line: 50

Prompt line: Recorded Papp A→B of COc1ccc(NC(=O)c2ccc(Cn3ccnn3)c3ccccc23)c(C(=O)NCC2CCOCC2)n1 , please.
Response line: 47

Prompt line: Recorded Papp A→B of C[S+]([O-])Cc1ccc(C(=O)Nc2cccnc2C(=O)NCC2CCOCC2)c2ccccc12 (configuration not stated) , please.
Response line: 23

Prompt line: Recorded Papp A→B of COc1ccc(NC(=O)c2ccc(Cn3ccnn3)c3ccccc23)c(C(=O)NCC2CCC2)n1 , please.
Response line: 0.96

Prompt line: Recorded Papp A→B of C[S@@+]([O-])Cc1ccc(C(=O)Nc2cccnc2C(=O)NCC2CCOCC2)c2ccccc12 , please.
Response line: 26

Prompt line: Recorded Papp A→B of O=C(NCC1CCOCC1)c1ncccc1NC(=O)c1ccc(Cn2ccnn2)c2ccccc12 , please.
Response line: 43

Prompt line: Recorded Papp A→B of COc1ccc(NC(=O)c2ccc(Cn3ccnn3)c3ccccc23)c(C(=O)NCC2CCCCC2)n1 , please.
Response line: 0.19

* * *

target: Cannabinoid receptor 1 (Homo sapiens, UniProt P21554); experiment: Agonist activity at human CB1 receptor expressed in HEK293S cell membranes after 1 hr by GTPgamma[35S] binding assay
Sequence (P21554 whole entry): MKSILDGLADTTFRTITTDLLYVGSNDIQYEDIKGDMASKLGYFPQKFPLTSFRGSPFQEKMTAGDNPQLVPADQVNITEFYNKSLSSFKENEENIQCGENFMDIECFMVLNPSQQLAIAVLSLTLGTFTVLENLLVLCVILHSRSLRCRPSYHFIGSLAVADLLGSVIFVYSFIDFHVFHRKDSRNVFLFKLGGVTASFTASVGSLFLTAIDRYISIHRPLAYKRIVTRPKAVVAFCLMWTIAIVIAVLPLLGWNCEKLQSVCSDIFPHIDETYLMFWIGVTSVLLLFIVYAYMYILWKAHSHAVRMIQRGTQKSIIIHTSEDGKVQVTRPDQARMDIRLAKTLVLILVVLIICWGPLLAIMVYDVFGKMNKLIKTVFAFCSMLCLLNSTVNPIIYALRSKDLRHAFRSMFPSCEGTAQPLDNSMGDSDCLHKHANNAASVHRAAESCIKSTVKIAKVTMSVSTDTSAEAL
Measurement Type: pEC50
A value of pEC50 is the negative decimal logarithm of a concentration given in moles per litre.

Prompt line: Recorded pEC50 of O=C(NCC1CCC1)c1ncccc1NC(=O)c1ccc(Cn2cccc2)c2ccccc12 , please.
Response line: 6.77

Prompt line: Recorded pEC50 of O=C(NCC1CCOCC1)c1ncccc1NC(=O)c1cccc2ccccc12 , please.
Response line: 7.09

Prompt line: Recorded pEC50 of O=C(NCC1CCC1)c1ncccc1NC(=O)c1ccc(Cn2ccnc2)c2ccccc12 , please.
Response line: 7.40

Prompt line: Recorded pEC50 of O=C(NCC1CCC1)c1ncccc1NC(=O)c1ccc(Cn2cccn2)c2ccccc12 , please.
Response line: 7.64

Prompt line: Recorded pEC50 of C[S+]([O-])Cc1ccc(C(=O)Nc2nccnc2C(=O)NCC2CCC2)c2ccccc12 (single isomer, unassigned) , please.
Response line: 7.49

Prompt line: Recorded pEC50 of COc1ccc(NC(=O)c2ccc(Cn3ccnn3)c3ccccc23)c(C(=O)NCC2CCC2)n1 , please.
Response line: 8.89

Prompt line: Recorded pEC50 of COc1ccc(NC(=O)c2ccc(Cn3ccnn3)c3ccccc23)c(C(=O)NCC2CCCCC2)n1 , please.
Response line: 8.77

Prompt line: Recorded pEC50 of C[S+]([O-])Cc1ccc(C(=O)Nc2cccnc2C(=O)NCC2CCOCC2)c2ccccc12 (centres undefined) , please.
Response line: 7.06

Prompt line: Recorded pEC50 of C[S+]([O-])Cc1ccc(C(=O)Nc2cccnc2C(=O)NCC2CCC2)c2ccccc12 (centres undefined) , please.
Response line: 8.23
